These data points were gathered from patent US5384408A.

# MEASURED TARGET: M3 muscarinic receptor (Cavia porcellus)
# Construct: involving ileum preparation
# Sequence (H0W1Z3 1-590): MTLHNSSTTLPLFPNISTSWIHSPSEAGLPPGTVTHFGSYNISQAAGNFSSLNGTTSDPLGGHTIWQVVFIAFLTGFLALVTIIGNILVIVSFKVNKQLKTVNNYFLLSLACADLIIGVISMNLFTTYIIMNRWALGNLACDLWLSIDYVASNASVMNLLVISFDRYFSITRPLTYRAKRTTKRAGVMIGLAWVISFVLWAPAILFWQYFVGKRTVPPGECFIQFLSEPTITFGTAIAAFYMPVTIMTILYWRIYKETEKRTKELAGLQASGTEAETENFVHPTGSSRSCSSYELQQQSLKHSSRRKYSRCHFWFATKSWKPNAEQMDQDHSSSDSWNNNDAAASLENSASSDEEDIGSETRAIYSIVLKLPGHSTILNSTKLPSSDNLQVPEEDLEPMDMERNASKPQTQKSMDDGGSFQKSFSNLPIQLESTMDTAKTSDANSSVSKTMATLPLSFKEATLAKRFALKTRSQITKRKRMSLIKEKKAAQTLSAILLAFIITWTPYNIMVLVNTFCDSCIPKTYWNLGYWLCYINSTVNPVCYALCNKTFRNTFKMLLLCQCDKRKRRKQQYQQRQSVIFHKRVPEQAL
# PROTOCOL DETAILS: M3 muscarinic activity, ileum preparation (method of Freedman et al.)
MEASURED PARAMETER: pEC50
Recall that pEC50 is obtained by taking minus log10 of the concentration measured in molar.

Fill in: pEC50 of Clc1cncc([C@H]2CN3CCC2CC3)n1 [Compound 2, reference compound] is ___
7.52

====

# MEASURED TARGET: M1 muscarinic receptor (Rattus norvegicus)
# Construct: as measured in the rat ganglion; from tissue
# Sequence (P08482 whole entry): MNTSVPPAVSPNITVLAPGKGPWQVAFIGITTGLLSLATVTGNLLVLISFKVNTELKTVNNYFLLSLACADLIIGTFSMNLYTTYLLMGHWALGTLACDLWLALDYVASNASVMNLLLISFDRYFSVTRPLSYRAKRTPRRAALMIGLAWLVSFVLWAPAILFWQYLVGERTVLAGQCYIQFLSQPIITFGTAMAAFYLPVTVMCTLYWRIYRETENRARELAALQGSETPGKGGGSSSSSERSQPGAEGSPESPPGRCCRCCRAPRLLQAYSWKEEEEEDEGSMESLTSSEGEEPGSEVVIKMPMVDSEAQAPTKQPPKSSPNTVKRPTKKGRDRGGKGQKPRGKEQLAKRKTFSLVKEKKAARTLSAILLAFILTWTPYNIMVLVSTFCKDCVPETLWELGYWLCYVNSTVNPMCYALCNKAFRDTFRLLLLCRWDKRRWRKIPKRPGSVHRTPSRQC
# PROTOCOL DETAILS: M1 muscarinic activity (method of Newberry et al.)
# Type: biochemical
MEASURED PARAMETER: EC50
Answer format reminder: number followed by unit.

Fill in: EC50 of FC(F)(F)c1cncc([C@H]2CN3CCC2CC3)n1 [(I): (+) base isomer] is ___
200 nM
